Cited source: the supplement of paper PMC10567573

Item-by-item account of protein stability index
B1: HSP90AB1 (parent)
chain: EADKNDKAVKDLVVLLFETALLSS

# Variants of: B1
# Assay Procedure: protein stability index of a GFP-peptide fusion (GPS, HEK-293T) (PSI 1-6); higher = more stable;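 further: lentivirally expressed fusions sorted by FACS into six bins by GFP to DsRed ratio, PSI derived from sequencing read proportions per bin multiplied by bin number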
# Assay Setup: c terminus: a fixed tail appended
Readout Name: protein stability index

INSERT INTO measurements (residue_sequence, numeric_value) VALUES
  ('NADKNDKAVKDLVVLLFETALLSS [E1N]', 1.89),
  ('EADKNDKAVKDLVVLLFQTALLSS [E18Q]', 1.77),
  ('EATKNDKAVKDLVVLLFETALLSS [D3T]', 1.65),
  ('EADKNDKAVKDLVVLLFETCLLSS [A20C]', 1.47),
  ('EMDKNDKAVKDLVVLLFETALLSS [A2M]', 1.67),
  ('EADKNDKAVVDLVVLLFETALLSS [K10V]', 2.48),
  ('EACKNDKAVKDLVVLLFETALLSS [D3C]', 1.4),
  ('EADKNDKAVKDLVVLLFETQLLSS [A20Q]', 2.44),
  ('EADKYDKAVKDLVVLLFETALLSS [N5Y]', 1.83),
  ('EADKNDKAVKDLVVLLFETALLSL [S24L]', 2.06),
  ('EADKNDHAVKDLVVLLFETALLSS [K7H]', 2),
  ('EADKNDKAVKDLVVLLFETALDSS [L22D]', 3.01),
  ('EADKNDKAVKDLVVLLFETALLSM [S24M]', 2.16),
  ('EADWNDKAVKDLVVLLFETALLSS [K4W]', 2.12),
  ('EADKNYKAVKDLVVLLFETALLSS [D6Y]', 1.69),
  ('EADKNWKAVKDLVVLLFETALLSS [D6W]', 1.69),
  ('EADKNDKAVKDLVVLEFETALLSS [L16E]', 4.31),
  ('EADKNDAAVKDLVVLLFETALLSS [K7A]', 1.95),
  ('EADKNDKAVKDLSVLLFETALLSS [V13S]', 3.54),
  ('EADKNDKAVKDLVVLLFVTALLSS [E18V]', 4.33),
  ('EADKNDKAVKDLVVLLFETALLAS [S23A]', 2.21),
  ('EADKNDKAVKDLVVLLFETDLLSS [A20D]', 2.85),
  ('EADKNDKACKDLVVLLFETALLSS [V9C]', 1.81),
  ('EADKNDKAVKDLVVLLFPTALLSS [E18P]', 2.73),
  ('EADKNDKAVKDLVVLLFETAILSS [L21I]', 2.17),
  ('EADKNDKAVKDLVRLLFETALLSS [V14R]', 2.29),
  ('EADKNDKAVKDLVVLLFETWLLSS [A20W]', 2.07),
  ('EADKNDKAVKDLVVLLYETALLSS [F17Y]', 2.13),
  ('EADKNDKAVKDHVVLLFETALLSS [L12H]', 3.27),
  ('EADKNDKAVKDLVVLLFETADLSS [L21D]', 2.57),
  ('EADKNDKAVKDLLVLLFETALLSS [V13L]', 2.1),
  ('EADKNGKAVKDLVVLLFETALLSS [D6G]', 1.85),
  ('EADKNDKAVKNLVVLLFETALLSS [D11N]', 2.67),
  ('EADKNDKAVKDLVVLLFETELLSS [A20E]', 2.43),
  ('EAWKNDKAVKDLVVLLFETALLSS [D3W]', 1.86),
  ('EADKNDKAVKDLRVLLFETALLSS [V13R]', 2.98),
  ('EADKNDKAVKDLVVLLFEMALLSS [T19M]', 2.29),
  ('EADKNDKAVKDLVALLFETALLSS [V14A]', 1.77),
  ('EADKNVKAVKDLVVLLFETALLSS [D6V]', 1.9),
  ('EADKNDKAVKDLVVLLFETALRSS [L22R]', 2.09),
  ('EADKNDSAVKDLVVLLFETALLSS [K7S]', 1.92),
  ('EADKNDKAVKDLVVLLFEKALLSS [T19K]', 2.2),
  ('EADKNDKAVKDLVVLLAETALLSS [F17A]', 3.56),
  ('EADKNDFAVKDLVVLLFETALLSS [K7F]', 2.32),
  ('EADKNDKAVKDLVVLLFETALLST [S24T]', 1.91),
  ('EADKNDKAVKDLVVHLFETALLSS [L15H]', 2.69);
